MEASUREMENT TARGET: human TAS2R4 (Homo sapiens, UniProt Q9NYW5)
Construct: expressed in transfected cells; host or cells: HEK293T-Gα16gust44
TEST NAME: Calcium imaging assay (FLIPR), HEK293T-Gα16gust44 cells transfected with human TAS2R4; note: test concentration or dose not given here
Assay type: cell-based
TEST SETTINGS: Time (s) 120.781 (TCA, TLCA: 120.782)

[
  {
    "STRUCTURE": "C[C@H](CCC(=O)O)[C@H]1CC[C@H]2[C@@H]3[C@@H](O)C[C@@H]4C[C@H](O)CC[C@]4(C)[C@H]3CC[C@]12C",
    "RLU, fluorescence trace (RLU)": 230.621
  },
  {
    "STRUCTURE": "C[C@H](CCC(=O)NCCS(=O)(=O)O)[C@H]1CC[C@H]2[C@@H]3CC[C@@H]4C[C@H](O)CC[C@]4(C)[C@H]3CC[C@]12C",
    "RLU, fluorescence trace (RLU)": 267.293
  },
  {
    "STRUCTURE": "C[C@H](CCC(=O)O)[C@H]1CC[C@H]2[C@@H]3CC[C@@H]4C[C@H](O)CC[C@]4(C)[C@H]3C[C@H](O)[C@]12C",
    "RLU, fluorescence trace (RLU)": 338.913
  }
]

----------
MEASUREMENT TARGET: human TAS2R1 (Homo sapiens, UniProt Q9NYW7)
Construct: expressed in transfected cells; host or cells: HEK293T-Gα16gust44
Sequence (Q9NYW7 whole entry): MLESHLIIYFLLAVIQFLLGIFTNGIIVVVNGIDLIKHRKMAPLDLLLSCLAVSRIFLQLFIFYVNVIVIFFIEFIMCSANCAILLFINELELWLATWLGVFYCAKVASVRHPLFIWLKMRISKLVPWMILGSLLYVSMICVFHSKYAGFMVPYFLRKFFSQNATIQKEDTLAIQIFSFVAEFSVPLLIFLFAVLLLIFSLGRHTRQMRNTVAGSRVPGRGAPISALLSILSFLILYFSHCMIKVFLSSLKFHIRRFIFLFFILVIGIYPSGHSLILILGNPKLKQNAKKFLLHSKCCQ
TEST NAME: Calcium imaging assay (FLIPR), HEK293T-Gα16gust44 cells transfected with human TAS2R1
Assay type: cell-based
TEST SETTINGS: Time 209.562 s
Recorded measurements of RLU, one per entry

[
  {
    "STRUCTURE": "C[C@H](CCC(=O)O)[C@H]1CC[C@H]2[C@@H]3[C@H](O)C[C@@H]4C[C@H](O)CC[C@]4(C)[C@H]3C[C@H](O)[C@]12C",
    "RLU [RLU]": 78.0739
  },
  {
    "STRUCTURE": "C[C@H](CCC(=O)O)[C@H]1CC[C@H]2[C@@H]3[C@H](O)C[C@@H]4C[C@H](O)CC[C@]4(C)[C@H]3CC[C@]12C",
    "RLU [RLU]": 318.301
  },
  {
    "STRUCTURE": "C[C@H](CCC(=O)O)[C@H]1CC[C@H]2[C@@H]3[C@@H](O)C[C@@H]4C[C@H](O)CC[C@]4(C)[C@H]3CC[C@]12C",
    "RLU [RLU]": 23.6957
  },
  {
    "STRUCTURE": "C[C@H](CCC(=O)O)[C@H]1CC[C@H]2[C@@H]3CC[C@@H]4C[C@H](O)CC[C@]4(C)[C@H]3CC[C@]12C",
    "RLU [RLU]": 433.685
  }
]

----------
MEASUREMENT TARGET: human TAS2R4 (Homo sapiens, UniProt Q9NYW5)
Construct: expressed in transfected cells; host or cells: HEK293T-Gα16gust44
Sequence (Q9NYW5 1-299): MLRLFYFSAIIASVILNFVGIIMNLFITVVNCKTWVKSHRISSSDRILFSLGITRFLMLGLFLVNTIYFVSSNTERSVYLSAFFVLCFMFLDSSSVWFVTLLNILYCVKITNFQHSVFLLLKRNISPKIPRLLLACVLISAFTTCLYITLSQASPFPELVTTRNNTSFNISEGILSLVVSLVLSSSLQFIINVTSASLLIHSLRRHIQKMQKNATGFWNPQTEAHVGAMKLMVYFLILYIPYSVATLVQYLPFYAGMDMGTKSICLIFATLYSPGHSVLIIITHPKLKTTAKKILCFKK
TEST NAME: Calcium imaging assay (FLIPR), HEK293T-Gα16gust44 cells transfected with human TAS2R4; note: test concentration or dose not given here
Assay type: cell-based
TEST SETTINGS: Time (s) 106.781 (TCA, TLCA: 106.782)
1 if RLU, fluorescence trace is below 300 RLU. 0 if not; exact matches included in 0.

[
  {
    "STRUCTURE": "C[C@H](CCC(=O)NCCS(=O)(=O)O)[C@H]1CC[C@H]2[C@@H]3[C@H](O)C[C@@H]4C[C@H](O)CC[C@]4(C)[C@H]3C[C@H](O)[C@]12C",
    "MEASUREMENT TARGET": "human TAS2R4 (Homo sapiens, UniProt Q9NYW5)",
    "ASSIGNED CATEGORY": 0
  },
  {
    "STRUCTURE": "C[C@H](CCC(=O)NCC(=O)O)[C@H]1CC[C@H]2[C@@H]3[C@H](O)C[C@@H]4C[C@H](O)CC[C@]4(C)[C@H]3C[C@H](O)[C@]12C",
    "MEASUREMENT TARGET": "human TAS2R4 (Homo sapiens, UniProt Q9NYW5)",
    "ASSIGNED CATEGORY": 0
  },
  {
    "STRUCTURE": "C[C@H](CCC(=O)O)[C@H]1CC[C@H]2[C@@H]3[C@@H](O)C[C@@H]4C[C@H](O)CC[C@]4(C)[C@H]3CC[C@]12C",
    "MEASUREMENT TARGET": "human TAS2R4 (Homo sapiens, UniProt Q9NYW5)",
    "ASSIGNED CATEGORY": 1
  },
  {
    "STRUCTURE": "C[C@H](CCC(=O)O)[C@H]1CC[C@H]2[C@@H]3CC[C@@H]4C[C@H](O)CC[C@]4(C)[C@H]3C[C@H](O)[C@]12C",
    "MEASUREMENT TARGET": "human TAS2R4 (Homo sapiens, UniProt Q9NYW5)",
    "ASSIGNED CATEGORY": 0
  },
  {
    "STRUCTURE": "C[C@H](CCC(=O)NCCS(=O)(=O)O)[C@H]1CC[C@H]2[C@@H]3CC[C@@H]4C[C@H](O)CC[C@]4(C)[C@H]3CC[C@]12C",
    "MEASUREMENT TARGET": "human TAS2R4 (Homo sapiens, UniProt Q9NYW5)",
    "ASSIGNED CATEGORY": 1
  },
  {
    "STRUCTURE": "C[C@H](CCC(=O)O)[C@H]1CC[C@H]2[C@@H]3[C@H](O)C[C@@H]4C[C@H](O)CC[C@]4(C)[C@H]3C[C@H](O)[C@]12C",
    "MEASUREMENT TARGET": "human TAS2R4 (Homo sapiens, UniProt Q9NYW5)",
    "ASSIGNED CATEGORY": 0
  }
]
